procedure.details: xn = mol fraction of the nth substance listed, in the solute-free solvent
condition.info: 303.15 K; x2 = 0.06974
Catalogue of solubility (g/100 g solution) values
readout.name: solubility (g/100 g solution)

INSERT INTO assay_data (compound, reported) VALUES
  ('CS(=O)(=O)c1ccc(C(O)C(CF)NC(=O)C(Cl)Cl)cc1 (stereo not given) + CC(C)O + O', 0.488),
  ('COC(=O)C1=C(C)NC(C)=C(C(=O)OCC(C)C)C1c1ccccc1[N+](=O)[O-] (stereo not given) + CC(C)O + O', 1.76),
  ('COC(=O)C1=C(C)NC(C)=C(C(=O)OCC(C)C)C1c1ccccc1[N+](=O)[O-] (stereo not given) + CCCO + O', 1.37),
  ('CC(=O)Nc1ccc(OC(=O)c2ccccc2OC(C)=O)cc1 + CC(C)O + O', 0.0367),
  ('O=[N+]([O-])c1cc[nH]n1 + CCCO + O', 0.772);
